system: Stress Ulcer; assay: Inhibitory Effect on Stress Ulcer in Rat (Water Immersion Restraint Method); type: in vivo; details: Rattus norvegicus, ip, 20 h, intraperitoneal, 100 mg/kg, water immersion restraint 21° C.
property: inhibition in vivo at 100 mg/kg (%)
Just the number in %, nothing appended.

COc1ccc(CCNC(=O)CNc2cc(OC)c(C(N)=O)cc2Cl)cc1OC = 21
CNc1nc(Cl)c(SC)c(NCC(=O)NCCc2ccc(OC)c(OC)c2)n1 = 17
COc1ccc(CCNC(=O)CNc2cccc(S(N)(=O)=O)c2)cc1OC = 47
COc1ccc(CCNC(=O)CNc2cccc(C(N)=O)c2)cc1OC [drawing 15] = 53

Lab note: next compound to report on.
Recorded inhibition in vivo at 100 mg/kg of COc1ccc(CCNC(=O)CNc2ccc(C(N)=O)cc2)cc1OC , please.
20
